- Test system: SMN2 minigene mRNA (SMN2-A minigene) in HEK293H cells
- assay_remarks: SMN2 minigene mRNA splicing RT-qPCR assay in cultured cells
- Type: cell-based, human
- details: Homo sapiens, HEK293-H; concentration increasing full length SMN2 mRNA 1.5-fold relative to vehicle-treated cells; HEK293H cells with SMN2-A minigene, 24 hours, 7-point concentration data; read-out: EC1.5x for production of full length SMN2 mRNA
readout_name: EC (1.5-fold increase)

Exam item: Given the entry `COc1ccc(-c2cc(=O)n3cc(C4=CCN(CCO)CC4)ccc3n2)cc1OC` , report its measured EC (1.5-fold increase).
Marked response: 0.3 to 1 µM

Exam item: Given the entry `Cc1nc(C2CCNCC2)cn2c(=O)cc(-c3ccc4nn(C)cc4c3)nc12` , report its measured EC (1.5-fold increase).
Marked response: < 0.1 µM

Exam item: Given the entry `CN(C)c1cccc(-c2cc(=O)n3cc(N4CCNCC4)ccc3n2)c1` , report its measured EC (1.5-fold increase).
Marked response: 3 to 30 µM

Exam item: Given the entry `CCN1CCC(c2cc(C)c3nc(-c4cc5c(C)nc(C)cn5n4)cc(=O)n3c2)CC1` , report its measured EC (1.5-fold increase).
Marked response: < 0.1 µM

---

Recorded melting point for the following molecules

mol | melting point
CCc1nc(C)cn2nc(-c3cc(=O)n4cc(N5CCN(CCO)CC5)ccc4n3)cc12 | 240 to 242 °C
Cc1cn2cc(-c3cc(=O)n4cc(N5CCN(CCO)[C@@H](C)C5)ccc4n3)cc(Cl)c2n1 | 228 to 234 °C
CN1CCC(c2ccc3nc(-c4ccc5nn(C)cc5c4)cc(=O)n3c2)CC1 | 256 to 258 °C

Exam item: Given the entry `COc1ccc(-c2cc(=O)n3cc(C4=CCN(C)CC4)ccc3c2)cc1OC` , report its measured melting point.
Marked response: 194 to 196 °C

Exam item: Given the entry `Cc1cn2cc(-c3cc(=O)n4cc(C5CCN(C(C)C)CC5)ccc4n3)cc(Cl)c2n1` , report its measured melting point.
Marked response: 279 to 285 °C

Exam item: Given the entry `C[C@H]1CN(c2ccc3nc(-c4cc(F)cc(Cl)c4)cc(=O)n3c2)CCN1` , report its measured melting point.
Marked response: 188 to 190 °C

Exam item: Given the entry `CCCN1CCC(c2ccc3nc(-c4ccc5nc(C)cn5c4)cc(=O)n3c2)CC1` , report its measured melting point.
Marked response: 159 to 161 °C

Exam item: Given the entry `CCc1nc(C)cn2nc(-c3cc(=O)n4cc(C5CCN(CC)CC5)ncc4n3)cc12` , report its measured melting point.
Marked response: 273 to 275 °C

---

Recorded EC (1.5-fold increase) for the following compounds
- Tested on: SMN2 minigene mRNA (SMN2-A minigene) in HEK293H cells
- assay_remarks: SMN2 minigene mRNA splicing RT-qPCR assay in cultured cells
- Type: cell-based, human
- details: Homo sapiens, HEK293-H; concentration increasing full length SMN2 mRNA 1.5-fold relative to vehicle-treated cells; HEK293H cells with SMN2-A minigene, 24 hours, 7-point concentration data; read-out: EC1.5x for production of full length SMN2 mRNA

Exam item: Given the entry `CCN(CC)C[C@@H]1CCN(c2ccc3nc(-c4cc5c(C)nc(C)cn5n4)cc(=O)n3c2)C1` , report its measured EC (1.5-fold increase).
Marked response: < 0.1 µM

---

Recorded melting point for the following molecules

Exam item: Given the entry `Cc1cn2cc(-c3cc(=O)n4cc(N5CCN(C6CC6)[C@@H](C)C5)ccc4n3)cc(Cl)c2n1` , report its measured melting point.
Marked response: 253 to 257 °C

---

Recorded melting point for the following compounds

Previously resolved entries follow.
compound | melting point
CNC1CC=C(c2ccc3nc(-c4ccc(OC)c(OC)c4)cc(=O)n3c2)CC1 (stereo not drawn) | 232 to 235 °C
CCCN1CC=C(c2ccc3nc(-c4cc(F)c5nc(C)oc5c4)cc(=O)n3c2)CC1 | 159 to 162 °C

In the following, a different compound is considered.
Exam item: Given the entry `CCN1CCN(c2ccc3nc(-c4ccc5nc(C)[nH]c5c4)cc(=O)n3c2)CC1` , report its measured melting point.
Marked response: 283 to 285 °C

---

Recorded EC (1.5-fold increase) for the following molecules
- System: SMN2 minigene mRNA (SMN2-A minigene) in HEK293H cells
- assay_remarks: SMN2 minigene mRNA splicing RT-qPCR assay in cultured cells
- Type: cell-based, human
- details: Homo sapiens, HEK293-H; concentration increasing full length SMN2 mRNA 1.5-fold relative to vehicle-treated cells; HEK293H cells with SMN2-A minigene, 24 hours, 7-point concentration data; read-out: EC1.5x for production of full length SMN2 mRNA

molecule | tested_target | EC (1.5-fold increase)
COc1ccc(-c2cc(=O)n3cc(N4CCC(N)CC4)ccc3c2)cc1F [Compound 201] | SMN2 minigene mRNA (SMN2-A minigene) in HEK293H cells | < 0.1 µM
COc1ccc(-c2cc(=O)n3cc(N(C)[C@@H]4CCNC4)ccc3n2)cc1F [Compound 233] | SMN2 minigene mRNA (SMN2-A minigene) in HEK293H cells | 0.3 to 1 µM
COc1ccc(-c2cc(=O)n3cc(N4CCN[C@H](C)C4)ccc3n2)cc1OC [Compound 8] | SMN2 minigene mRNA (SMN2-A minigene) in HEK293H cells | 0.1 to 0.3 µM

In the following, a different molecule is considered.
Exam item: Given the entry CN1CCC(c2ccc3nc(-c4ccc5c(cnn5C)c4)cc(=O)n3c2)CC1 [Compound 475] , report its measured EC (1.5-fold increase).
Marked response: 0.3 to 1 µM

---

Recorded EC (1.5-fold increase) for the following compounds
- Test system: SMN2 minigene mRNA (SMN2-A minigene) in HEK293H cells
- assay_remarks: SMN2 minigene mRNA splicing RT-qPCR assay in cultured cells
- Assay type: cell-based, human
- details: Homo sapiens, HEK293-H; concentration increasing full length SMN2 mRNA 1.5-fold relative to vehicle-treated cells; HEK293H cells with SMN2-A minigene, 24 hours, 7-point concentration data; read-out: EC1.5x for production of full length SMN2 mRNA

Exam item: Given the entry CCc1cc(C2=CCN(CC)CC2)cn2c(=O)cc(-c3ccc(OC)c(OC)c3)nc12 [Compound 418] , report its measured EC (1.5-fold increase).
Marked response: < 0.1 µM

Exam item: Given the entry COc1ccc(-c2cc(=O)n3cc(N4CC5CCC(C4)N5)ccc3n2)cc1OC [Compound 66] , report its measured EC (1.5-fold increase).
Marked response: 0.3 to 1 µM

Exam item: Given the entry N#Cc1cccc(-c2cc(=O)n3cc(N4CCNCC4)ccc3n2)c1 [Compound 150] , report its measured EC (1.5-fold increase).
Marked response: 0.3 to 1 µM

Exam item: Given the entry Cc1cn2nc(-c3cc(=O)n4cc(N5CCC(NC(C)C)CC5)cc(C)c4n3)cc2c(C)n1 [Compound 611] , report its measured EC (1.5-fold increase).
Marked response: 0.3 to 1 µM

---

- Tested on: SMN2 minigene mRNA (SMN2-A minigene) in HEK293H cells
- assay_remarks: SMN2 minigene mRNA splicing RT-qPCR assay in cultured cells
- Format: cell-based, human
- details: Homo sapiens, HEK293-H; concentration increasing full length SMN2 mRNA 1.5-fold relative to vehicle-treated cells; HEK293H cells with SMN2-A minigene, 24 hours, 7-point concentration data; read-out: EC1.5x for production of full length SMN2 mRNA
readout_name: EC (1.5-fold increase)

Previously resolved entries follow.
mol | EC (1.5-fold increase)
Cc1nc2ccc(-c3cc(=O)n4cc(N5CCN[C@@H](C)C5)ccc4n3)cc2o1 | < 0.1 µM
Cc1cn2cc(-c3cc(=O)n4cc(N5CCN(CCO)[C@@H](C)C5)ccc4n3)cc(F)c2n1 | < 0.1 µM
Cc1cn2nc(-c3cc(=O)n4cc(N5CCC(C)(NCCO)CC5)ccc4n3)cc2c(C)n1 | < 0.1 µM

In the following, a different compound is considered.
Exam item: Given the entry `O=c1cc(-c2cccc(C(F)(F)F)c2)nc2ccc(N3CCNCC3)cn12` , report its measured EC (1.5-fold increase).
Marked response: 0.1 to 0.3 µM

---

Recorded melting point for the following molecules

Previously resolved entries follow.
mol | readout_name | recorded_result
O=c1cc(-c2ccn3ccnc3c2)nc2ccc(N3CCNCC3)cn12 | melting point | 258 to 270 °C
CCN1CCC(c2ccc3nc(-c4ccc(OC)c(OC)c4)cc(=O)n3c2)CC1 | melting point | 155 to 157 °C
CCCc1nc(C)cn2nc(-c3cc(=O)n4cc(N5CCN(CCO)CC5)ccc4n3)cc12 | melting point | 225 to 227 °C

Exam item: Given the entry `Cc1cn2nc(-c3cc(=O)n4cc(N5CCN[C@H](C)C5)ccc4n3)cc2cn1` , report its measured melting point.
Marked response: 240 to 244 °C
